This collection of values is drawn from patent US20180099931A1.

Target: F508delCFTR (Homo sapiens, UniProt P13569, DEL508-508)
Construct: expressed in transfected cells; host or cells: CFBE41o- human lung-derived epithelial cells (CFBE4lo-F508delCFTR-HRP), doxycycline-inducible
Sequence (P13569 with tags, fused parts or gaps DEL508-508): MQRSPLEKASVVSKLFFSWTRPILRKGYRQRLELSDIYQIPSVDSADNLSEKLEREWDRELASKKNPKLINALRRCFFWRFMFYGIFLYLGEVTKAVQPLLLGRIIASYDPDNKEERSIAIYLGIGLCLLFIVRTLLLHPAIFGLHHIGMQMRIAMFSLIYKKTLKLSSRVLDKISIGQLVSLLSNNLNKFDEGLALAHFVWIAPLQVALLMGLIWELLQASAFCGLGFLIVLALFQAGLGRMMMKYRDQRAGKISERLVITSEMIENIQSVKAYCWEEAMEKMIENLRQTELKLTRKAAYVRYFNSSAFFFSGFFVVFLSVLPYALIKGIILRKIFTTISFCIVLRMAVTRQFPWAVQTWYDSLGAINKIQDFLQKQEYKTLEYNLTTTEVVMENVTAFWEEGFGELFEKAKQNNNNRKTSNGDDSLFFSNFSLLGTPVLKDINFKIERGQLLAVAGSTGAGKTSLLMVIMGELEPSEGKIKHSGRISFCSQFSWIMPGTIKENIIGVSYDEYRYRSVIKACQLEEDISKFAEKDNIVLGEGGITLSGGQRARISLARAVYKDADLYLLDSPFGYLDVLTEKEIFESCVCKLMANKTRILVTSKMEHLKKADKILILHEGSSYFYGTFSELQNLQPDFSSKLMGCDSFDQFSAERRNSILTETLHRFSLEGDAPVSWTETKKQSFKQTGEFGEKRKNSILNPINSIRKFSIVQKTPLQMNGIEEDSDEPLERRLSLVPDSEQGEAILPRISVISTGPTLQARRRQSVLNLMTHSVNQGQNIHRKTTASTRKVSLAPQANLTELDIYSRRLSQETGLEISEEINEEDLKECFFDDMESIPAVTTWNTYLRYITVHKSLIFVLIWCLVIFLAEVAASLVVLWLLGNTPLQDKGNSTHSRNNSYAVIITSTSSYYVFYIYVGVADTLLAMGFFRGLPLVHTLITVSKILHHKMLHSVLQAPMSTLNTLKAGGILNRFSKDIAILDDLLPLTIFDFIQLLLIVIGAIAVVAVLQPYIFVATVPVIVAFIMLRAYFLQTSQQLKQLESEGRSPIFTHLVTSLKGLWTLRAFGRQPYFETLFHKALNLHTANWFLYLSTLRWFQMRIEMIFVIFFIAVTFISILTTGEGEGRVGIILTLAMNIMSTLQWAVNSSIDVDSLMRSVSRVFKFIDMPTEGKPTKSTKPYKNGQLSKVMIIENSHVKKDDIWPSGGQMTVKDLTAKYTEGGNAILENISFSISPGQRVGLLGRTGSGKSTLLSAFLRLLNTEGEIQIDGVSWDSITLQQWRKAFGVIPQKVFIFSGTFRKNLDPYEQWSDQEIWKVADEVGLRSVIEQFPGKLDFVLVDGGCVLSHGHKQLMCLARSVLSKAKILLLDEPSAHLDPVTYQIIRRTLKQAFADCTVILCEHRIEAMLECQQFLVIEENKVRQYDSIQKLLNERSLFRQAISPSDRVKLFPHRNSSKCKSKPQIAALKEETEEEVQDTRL
Test: Cell Surface Expression-Horse Radish Peroxidase (CSE-HRP) Assay
Type: cell-based
Details: with co-corrector (2 μM of 3-[(2R,4R)-4-({[1-(2,2-difluoro-1,3-benzodioxol-5-yl)cyclopropyl]carbonyl}amino)-7-methoxy-3,4-dihydro-2H-chromen-2-yl]benzoic acid); read-out: EC50 (with co-corrector)
pEC50: −log10 of the molar value.
ASSAY READOUT: pEC50

Worked examples, 5 compounds total:
COMPOUND | RESULT
COc1cc(C(F)(F)F)ccc1CN[C@@H]1[C@@H](C(C)(C)C)[C@H](C(=O)O)N(C(=O)[C@H]2CCCCO2)[C@@H]1c1ccccc1 | 5.00 to 6.00
CO[C@@H](C(=O)N1[C@H](C(=O)O)[C@@H](C(C)(C)C)[C@H](Nc2cc(C(F)(F)F)cc(C)n2)[C@@H]1c1ccccc1)c1ccccc1 | 5.00 to 6.00
COc1ccc(C(C)(C)C)cc1CN[C@H]1[C@H](C(C)(C)C)[C@@H](C(=O)O)N(C(=O)C2CCC(C)CC2)[C@H]1c1ccccc1 (stereo partly drawn) | > 6.00
COc1ccc(C23CC(C2)C3)cc1CN[C@H]1[C@H](C(C)(C)C)[C@@H](C(=O)O)N(C(=O)C2CCCCC2)[C@H]1c1cccnc1N(C)C | > 6.00
COc1ccc(C(C)(C)C)cc1CN[C@H]1[C@H](C(C)(C)C)[C@@H](C(=O)O)N(C(=O)C2=C(F)CCCC2)[C@H]1c1ccccc1 | > 6.00

Q: If you can, please state the reported pEC50 value of COc1ncc(C(F)(F)F)cc1N[C@H]1[C@H](C(C)(C)C)[C@@H](C(=O)O)N(C(=O)C2C3CCCC32)[C@H]1c1cccnc1N(C)C (stereo partly drawn) .
Result: 5.00 to 6.00

----------
Measured EC50 accompanies every entry in the list below.
Biological target: F508delCFTR (Homo sapiens, UniProt P13569, DEL508-508)
Construct: expressed in transfected cells; host or cells: CFBE41o- human lung-derived epithelial cells (CFBE4lo-F508delCFTR-HRP), doxycycline-inducible
Experiment: Cell Surface Expression-Horse Radish Peroxidase (CSE-HRP) Assay
Format: cell-based
Details: test compound without co-corrector; read-out: EC50 (without co-corrector)

COMPOUND | TESTED TARGET | RESULT
COc1ncc(C2CCC2)cc1CN[C@H]1[C@H](C(C)(C)C)[C@@H](C(=O)O)N(C(=O)[C@H]2CCCCO2)[C@H]1c1ccccc1C(C)C | F508delCFTR (Homo sapiens, UniProt P13569, DEL508-508) | 1000 to 10000 nM

Q: So what EC50 did COc1ccc(Br)cc1CN[C@H]1[C@H](C(C)(C)C)[C@@H](C(=O)O)N(C(=O)C2CCCCC2)[C@H]1c1ccccc1 get with F508delCFTR (Homo sapiens, UniProt P13569, DEL508-508)?
Result: < 1000 nM

Q: Same question, CC(C)c1ccccc1CN[C@@H]1[C@@H](C(C)(C)C)[C@H](C(=O)O)N(C(=O)C2CCCCC2)[C@@H]1c1ccccc1 (racemic) this time
Result: < 1000 nM

Q: Same question, COc1ccc(C(C)(C)C)cc1CN[C@H]1[C@H](C(C)(C)C)[C@@H](C(=O)O)N(C(=O)C2CCc3cccc(OC)c3C2)[C@H]1c1ccccc1 (stereo partly drawn) this time
Result: < 1000 nM

Q: Same question, COc1ccc(C(C)(C)C)cc1CN[C@H]1[C@H](C(C)(C)C)[C@@H](C(=O)O)N(C(=O)C23CC(F)(C2)C3)[C@H]1c1ccccc1 this time
Result: 1000 to 10000 nM

Q: Same question, COc1ccc(C(F)(F)F)cc1CN[C@@H]1[C@H](C(C)(C)C)[C@@H](C(=O)O)N(C(=O)OC(C)C)[C@H]1c1ccccc1 this time
Result: 1000 to 10000 nM

----------
Target: F508delCFTR (Homo sapiens, UniProt P13569, DEL508-508)
Construct: expressed in transfected cells; host or cells: CFBE41o- human lung-derived epithelial cells (CFBE4lo-F508delCFTR-HRP), doxycycline-inducible
Assay: Cell Surface Expression-Horse Radish Peroxidase (CSE-HRP) Assay;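 as to Maximum % activity (with co-corrector): co-corrector and positive control are both the same reference corrector at 2 µM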
Type: cell-based
Conditions: with co-corrector (2 μM); maximum at any tested concentration, normalized to on-plate positive control
ASSAY READOUT: Maximum % activity (with co-corrector)

COMPOUND | RESULT
COc1ccc(C(C)(C)C)cc1CN[C@H]1[C@H](C(C)(C)C)[C@@H](C(=O)O)N(C(=O)[C@@H]2C[C@H]3CC[C@@H]2O3)[C@H]1c1ccccc1C(C)C (relative stereo) | +++ (≥350)
COc1ccc(C(C)(C)C)cc1CN[C@H]1[C@H](C(C)(C)C)[C@@H](C(=O)O)N(C(=O)C2OC[C@@H]3CCC[C@H]23)[C@H]1c1ccccc1 (relative stereo) | +++ (≥350)
COc1ccc(C(C)(C)C)cc1CN[C@H]1[C@H](C(C)(C)C)[C@@H](C(=O)O)N(C(=O)[C@@H]2CCCO2)[C@H]1c1ccccc1C1CC1 | +++ (≥350)

----------
Target: F508delCFTR (Homo sapiens, UniProt P13569, DEL508-508)
Construct: expressed in transfected cells; host or cells: CFBE41o- human lung-derived epithelial cells (CFBE4lo-F508delCFTR-HRP), doxycycline-inducible
Assay: Cell Surface Expression-Horse Radish Peroxidase (CSE-HRP) Assay
Type: cell-based
Details: CSE-HRP; with co-corrector (2 μM of 3-[(2R,4R)-4-({[1-(2,2-difluoro-1,3-benzodioxol-5-yl)cyclopropyl]carbonyl}amino)-7-methoxy-3,4-dihydro-2H-chromen-2-yl]benzoic acid); read-out: EC50 (with co-corrector)
pEC50: −log10 of the molar value.
ASSAY READOUT: pEC50

Worked examples, 2 molecules total:
SMILES DATA | ASSAY READOUT | RESULT
COc1ccc(C(C)(C)C)cc1CN[C@H]1[C@H](C(C)(C)C)[C@@H](C(=O)O)N(C(=O)Cc2cccc(F)c2F)[C@H]1c1ccccc1 | pEC50 | > 6.00
COc1ccc(C(C)(C)C)cc1CN[C@H]1[C@H](C(C)(C)C)[C@@H](C(=O)O)N(C(=O)c2cccc3c2OCC3)[C@H]1c1ccccc1 | pEC50 | > 6.00

Q: If you can, please state the reported pEC50 value of COc1ccc(C(C)(C)C)cc1CN[C@H]1[C@H](C(C)(C)C)[C@@H](C(=O)O)N(S(=O)(=O)c2ccn(C)n2)[C@H]1c1ccccc1 .
Result: 5.00 to 6.00

----------
Molecular target: F508delCFTR (Homo sapiens, UniProt P13569, DEL508-508)
Construct: expressed in transfected cells; host or cells: CFBE41o- human lung-derived epithelial cells (CFBE4lo-F508delCFTR-HRP), doxycycline-inducible
Experiment: Cell Surface Expression-Horse Radish Peroxidase (CSE-HRP) Assay
Format: cell-based
Conditions: test compound without co-corrector; read-out: EC50 (without co-corrector)
Protocol: Cell Surface Expression-Horse Radish Peroxidase (CSE-HRP) Assay The development was achieved by expressing the F508delCFTR mutation along with a horseradish peroxidase (HRP) in the fourth exofacial loop, and then measuring the HRP activity using luminescence readout from these cells, CFBE4lo-F508delCFTR-HRP, that were incubated overnight with the test corrector compounds, either without or with the co-corrector. […] The raw counts from the experiment were analyzed using Accelrys® Assay Explorer v3.3. […]
ASSAY READOUT: EC50

MOLECULE | ASSAY READOUT | RESULT
COc1ccc(C(C)(C)C)cc1CN[C@H]1[C@H](C(C)(C)C)[C@@H](C(=O)O)N(C(=O)C2CCc3ccccc32)[C@H]1c1ccccc1 (stereo partly drawn) [II-337] | EC50 | < 1000 nM
COc1ccc(C(C)(C)C#N)cc1CN[C@H]1[C@H](C(C)(C)C)[C@@H](C(=O)O)N(C(=O)C2CCCCC2)[C@H]1c1ccccc1 [Example I-88] | EC50 | 1000 to 10000 nM
COc1nc(C(C)(C)C)ccc1CN[C@H]1[C@H](C(C)(C)C)[C@@H](C(=O)O)N(C(=O)C2Cc3ccccc3O2)[C@H]1c1ccccc1 (single isomer, unassigned) [Example I-181] | EC50 | < 1000 nM

Q: If you can, please state the reported EC50 value of COc1ncc(C(F)(F)F)cc1CN[C@H]1[C@H](C(C)(C)C)[C@@H](C(=O)O)N(C(=O)OC(C)C)[C@H]1c1cccnc1N1CCC1 [II-592] .
Result: 1000 to 10000 nM

Q: Same question, COc1cccc(CN[C@@H]2[C@@H](C(C)(C)C)[C@H](C(=O)O)N(C(=O)C3CCCCC3)[C@@H]2c2ccccc2)c1OC (racemic) [III-13] this time
Result: > 10000 nM

Q: Same question, C=CCOC(=O)N1[C@H](C(=O)O)[C@@H](C(C)(C)C)[C@H](NCc2cc(C(C)(C)C)ccc2OC)[C@@H]1c1ccccc1 [II-391] this time
Result: 1000 to 10000 nM
